# target-system: T1, recombinant canine OX40L ECD-TNCc-HIS protein (canine)
# T1 construct: also called Trimeric OX40L probe (HIS tag); trimeric canine OX40L
# T1 chain: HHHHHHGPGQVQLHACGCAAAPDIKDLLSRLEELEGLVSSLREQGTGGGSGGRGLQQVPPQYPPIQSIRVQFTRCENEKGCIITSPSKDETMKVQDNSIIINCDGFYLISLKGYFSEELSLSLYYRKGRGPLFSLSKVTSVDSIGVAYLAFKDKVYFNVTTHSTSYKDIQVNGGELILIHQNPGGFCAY
# test-details: SPR Koff (kd2)
outcome-measure: koff (s⁻¹)
Only the number, expressed in s⁻¹, is required.

binder	outcome-measure	endpoint-result
PMX027 (antibody, V domains shown, also called PMX27) VH: EVHLVESGGDLVKPGGSLRLSCVASGFTFSTYHMSWVRQAPGKGLQWVAFINAGEISTNYADAVKGRFTISRDNAKNIFYLQMNSLRAEDTAVYYCATGHIWIRPFDYWGQGTLVTVSS VL: SYVLTQLPSMSVTLRQTARITCEGNSIGRKRVNWYQQKLGQVPVLIIYDDDSRPSGIPERFSGANSGNTATLTISGALAEDEAEYYCQVWDSSNNWVFGEGTQLTVL	koff	0.000505

Lookup result for PMX061 (antibody, V domains shown, also called PMX61) VH: EVQLVESGGDLVKPGGSLRLSCVASGFTFSSFPMSWVRQAPGKGLQWVAYINSGGSSTSYADVVKGRFTISRDNAKNTLYLQMNSLRADDTAVYYCARTFPTVATDNWFYYWGQGTLVTVSS VL: SYVLTQLPSKNVTLKQAAHITCGGDNIGSKSVHWYQQKLGQAPVLIIYYDSSRPTGIPERFSGANSGNTATLTISGALAEDEADYYCQVWDSSAKWVFGEGTQLTVL ; measured koff: 0.000729
